The reported measurements were obtained from patent US20060122432A1.

system: LDL-r promoter; assay: LDL-r promoter luciferase reporter assay in HepG2 cells; assay type: cell-based; details: Homo sapiens; HepG2 cells stably transfected with LDL-r promoter-luciferase construct, 24 hours incubation, 2% lipoprotein-deficient serum; read-out: EC50 induction of luciferase activity
Reported Endpoint: pEC50
Expect pEC50 as a plain number equal to -log10 of the molar concentration.

| Smiles Structure | pEC50 |
| --- | --- |
| Cc1nc(-c2ccc(Cl)cc2Cl)sc1C(=O)NCCCCN1CCC(c2ccc3c(c2OCCO)CCCC3)CC1 | 7.89 |

Ask: Find the measured pEC50: item CS(=O)(=O)Nc1ccc(-c2ccc(C(=O)NCCCCN3CCC(c4ccc5c(c4OCCO)CCCC5)CC3)cc2)cc1 , target or system LDL-r promoter.
Result: 8.30
